From: the supplement of paper PMC9170038

System: MS2 coat protein
Experiment: apparent KD of MS2 coat protein, switch ON state; designed switch direction (-1 OFF switch, 1 ON switch): 1; higher = weaker reporter binding
Details: FMN input: 0 or 200 uM; Eterna round: R93 (includes R88 designs)
Readings of apparent KD of MS2 coat protein for the listed sequences
Respond numerically; units are nM and should not be typed.

Below are worked cases with known answers.
{"columns": ["Ordered Residues", "apparent KD of MS2 coat protein (nM)"],
 "data": [
  ["GAAAAACAUGAGGAUCACCCAUGUGAGAAUAUGGGAGGAUAUACGAGGACGAGAGUCAAGGUAGAAGGCCUAAAAG [Garnet 75]", 40.5],
  ["AGGAGACAUGAGGAUCACCCAUGUGAGAAGAGGCGAGGAUAUCGAAAGAAAGAAGAGAAACGAGAAGGCGCGAGCU [salish99-SS1-024]", 24.4],
  ["GGUACGGCUAGUCAGGAUAUCAGGCGUAAGACAUGAGGAUCACCCAUGUCCUAAGAACAGGUAACUGAGAAGGGACAGGGCGUCC [JR_SS002_Sub414]", 28.8],
  ["ACUUCACAUGAGGAUCACCCAUGUCAGGCCGGACUAGGAUAUUAUCAAGCAGCGUAACCAUAAGAAGGAGUAGGAA [JR_SS001_Sub313]", 57.7],
  ["GUAGACAUAGUUCAGGAUAUAGGAAUAGUCACAUGAGGAUCACCCAUGUGCAUUUAUAUGCGCACUUAGAAGGGAGGUAGUUAAC [Mat - Same state - Malcolm Mod - D121]", 26.3]
]}

// moving on: another record for apparent KD of MS2 coat protein
apparent KD of MS2 coat protein reading for GAUCCAACUAGUCAGGAUAUCAGGCGUAAGACAUGAGGAUCACCCAUGUCCUAAGAACAAGUAACUGAGAAGGGACAGGGCGACC [JR_SS002_Sub412] : 70.5
